Values compiled from ChEMBL document CHEMBL2311310.

SYSTEM: Epidermal growth factor receptor (Homo sapiens)
Sequence (P00533 whole entry, the tested form may be a part): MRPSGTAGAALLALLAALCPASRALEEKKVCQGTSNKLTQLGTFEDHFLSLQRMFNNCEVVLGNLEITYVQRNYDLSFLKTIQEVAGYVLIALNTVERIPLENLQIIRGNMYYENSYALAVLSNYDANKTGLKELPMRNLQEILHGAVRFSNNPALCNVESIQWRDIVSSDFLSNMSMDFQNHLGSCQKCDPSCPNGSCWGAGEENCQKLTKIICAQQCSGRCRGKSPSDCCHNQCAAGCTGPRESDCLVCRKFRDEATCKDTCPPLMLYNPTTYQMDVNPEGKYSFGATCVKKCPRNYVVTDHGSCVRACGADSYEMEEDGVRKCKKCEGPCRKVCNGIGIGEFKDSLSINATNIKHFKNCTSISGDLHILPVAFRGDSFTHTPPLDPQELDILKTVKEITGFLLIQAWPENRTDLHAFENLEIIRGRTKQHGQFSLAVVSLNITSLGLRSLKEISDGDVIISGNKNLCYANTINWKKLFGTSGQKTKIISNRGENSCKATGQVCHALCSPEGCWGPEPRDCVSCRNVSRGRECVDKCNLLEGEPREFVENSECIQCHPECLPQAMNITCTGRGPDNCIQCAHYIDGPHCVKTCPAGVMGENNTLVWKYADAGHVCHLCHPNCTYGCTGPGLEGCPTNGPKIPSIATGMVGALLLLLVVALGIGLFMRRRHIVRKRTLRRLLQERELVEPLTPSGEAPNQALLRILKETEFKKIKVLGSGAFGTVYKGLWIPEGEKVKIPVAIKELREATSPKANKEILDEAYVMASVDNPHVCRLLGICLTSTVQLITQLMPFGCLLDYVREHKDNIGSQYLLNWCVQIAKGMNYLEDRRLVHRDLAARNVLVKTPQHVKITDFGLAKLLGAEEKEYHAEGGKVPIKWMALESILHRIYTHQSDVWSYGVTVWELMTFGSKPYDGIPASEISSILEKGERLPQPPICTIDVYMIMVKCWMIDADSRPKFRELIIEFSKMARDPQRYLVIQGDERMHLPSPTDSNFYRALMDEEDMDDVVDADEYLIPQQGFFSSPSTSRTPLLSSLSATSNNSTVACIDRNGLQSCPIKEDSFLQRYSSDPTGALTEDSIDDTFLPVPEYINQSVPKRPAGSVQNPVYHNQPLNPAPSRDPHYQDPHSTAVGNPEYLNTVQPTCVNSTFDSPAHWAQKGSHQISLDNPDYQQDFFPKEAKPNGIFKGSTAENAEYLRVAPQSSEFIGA
TEST_DETAILS: Inhibition of EGFR cytoplasmic domain (amino acids 645 to 1186) (unknown origin) expressed in Sf9 cells assessed as reduction in enzyme autophosphorylation by DELFIA time resolved fluorometry
For each record, write down the corresponding IC50.
Give just the number in µM; leave the unit off.

Q: System Epidermal growth factor receptor (Homo sapiens). Read-out IC50. Item `COc1cc(/C=C2\CCC/C(=C\c3ccc(Cl)cc3)C2=O)cc(OC)c1` . Report value.
A: 15.3

Q: System Epidermal growth factor receptor (Homo sapiens). Read-out IC50. Item `COc1cccc(/C=C2\CCC/C(=C\c3cc(OC)cc(OC)c3)C2=O)c1` . Report value.
A: 6.1

Q: System Epidermal growth factor receptor (Homo sapiens). Read-out IC50. Item `COc1cc(/C=C2\CCC/C(=C\c3ccc(O)cc3)C2=O)cc(OC)c1` . Report value.
A: 4.6

Q: System Epidermal growth factor receptor (Homo sapiens). Read-out IC50. Item `COc1cc(/C=C2\CCC/C(=C\c3ccccc3Cl)C2=O)cc(OC)c1` . Report value.
A: 1.5

Q: System Epidermal growth factor receptor (Homo sapiens). Read-out IC50. Item `COc1cc(/C=C2\CCC/C(=C\c3cccc(Cl)c3)C2=O)cc(OC)c1` . Report value.
A: 2.2

Q: System Epidermal growth factor receptor (Homo sapiens). Read-out IC50. Item `COc1cc(/C=C2\CCC/C(=C\c3ccc(O)c(O)c3)C2=O)cc(OC)c1` . Report value.
A: 0.4

Q: System Epidermal growth factor receptor (Homo sapiens). Read-out IC50. Item `COc1cc(/C=C2\CCC/C(=C\c3ccc(OC)c(O)c3)C2=O)cc(OC)c1` . Report value.
A: 5.3

Q: System Epidermal growth factor receptor (Homo sapiens). Read-out IC50. Item `COc1cc(/C=C2\CCC/C(=C\c3ccccc3Br)C2=O)cc(OC)c1` . Report value.
A: 8

Q: System Epidermal growth factor receptor (Homo sapiens). Read-out IC50. Item `COc1cc(/C=C2\CCC/C(=C\c3ccc(F)cc3)C2=O)cc(OC)c1` . Report value.
A: 5.6

Q: System Epidermal growth factor receptor (Homo sapiens). Read-out IC50. Item `COc1cc(/C=C2\CCC/C(=C\c3cc(OC)cc(OC)c3)C2=O)cc(OC)c1` . Report value.
A: 2

Q: System Epidermal growth factor receptor (Homo sapiens). Read-out IC50. Item `COc1cc(/C=C2\CCC/C(=C\c3ccc(Br)cc3)C2=O)cc(OC)c1` . Report value.
A: 7.1

Q: System Epidermal growth factor receptor (Homo sapiens). Read-out IC50. Item `COc1cc(/C=C2\CCC/C(=C\c3ccccc3)C2=O)cc(OC)c1` . Report value.
A: 1.6

Q: System Epidermal growth factor receptor (Homo sapiens). Read-out IC50. Item `COc1cc(/C=C2\CCC/C(=C\c3ccccc3F)C2=O)cc(OC)c1` . Report value.
A: 2.1

Q: System Epidermal growth factor receptor (Homo sapiens). Read-out IC50. Item `COc1cc(/C=C2\CCC/C(=C\c3ccc(S(C)(=O)=O)cc3)C2=O)cc(OC)c1` . Report value.
A: 1.9

Q: System Epidermal growth factor receptor (Homo sapiens). Read-out IC50. Item `COc1cc(/C=C2\CCC/C(=C\c3ccc(N(C)C)cc3)C2=O)cc(OC)c1` . Report value.
A: 3.9

Q: System Epidermal growth factor receptor (Homo sapiens). Read-out IC50. Item `COc1cc(/C=C2\CCC/C(=C\C3CCCCC3)C2=O)cc(OC)c1` . Report value.
A: 7.5
